Attribution: ChEMBL document CHEMBL3885881

Species on record: Rattus norvegicus
Test: DrugMatrix - Regimen: Daily Repeat
Type: toxicity, organism-based, Sprague-Dawley
Parameters: regimen Daily Repeat, gender Male, age 6-8 weeks
Settings: in vivo, po, 0 mg/kg, 120 h, tissue Blood, route oral GAVAGE, dose level Control, time 5 day, vehicle 100 % WATER
Catalogue of compounds with associated HEMOGLOBIN
Numbers only here, please. The scale is G/DL.

Below, each entry is followed by its recorded HEMOGLOBIN result.
COMPOUND	RECORDED VALUE
Cc1c(N(C)CS(=O)(=O)[O-])c(=O)n(-c2ccccc2)n1C.[Na+] [DIPYRONE SODIUM]	13.28
CC(C)(C)NC[C@H](O)COc1nsnc1N1CCOCC1 [TIMOLOL]	13.47
CCCc1nn(C)c2c(=O)[nH]c(-c3cc(S(=O)(=O)N4CCN(C)CC4)ccc3OCC)nc12	13.72
CNS(=O)(=O)Cc1ccc2[nH]cc(CCN(C)C)c2c1	14.03
O=C(O)c1cccnc1 [NIACIN]	14.22
CC[C@H]1OC(=O)[C@H](C)[C@@H](O[C@H]2C[C@@](C)(OC)[C@@H](O)[C@H](C)O2)[C@H](C)[C@@H](O[C@@H]2O[C@H](C)C[C@H](N(C)C)[C@H]2O)[C@](C)(OC)C[C@@H](C)C(=O)[C@H](C)[C@@H](O)[C@]1(C)O [CLARITHROMYCIN]	13.37

Attention now turns to another entry.
Problem: What measured HEMOGLOBIN goes with CC[C@H]1OC(=O)[C@H](C)[C@@H](O[C@H]2C[C@@](C)(OC)[C@@H](O)[C@H](C)O2)[C@H](C)[C@@H](O[C@@H]2O[C@H](C)C[C@H](N(C)C)[C@H]2O)[C@](C)(O)C[C@@H](C)CN(C)[C@H](C)[C@@H](O)[C@]1(C)O [AZITHROMYCIN] ?
Result: 13.9
